Origin of values: PubChem BioAssay (NCI)

System: HT29 colon
PROCEDURE SUMMARY: NCI tumour cell line growth inhibition, 48 h; in the data active = GI50 below about 0.43 µM; inactive = the rest
Hi! Could you answer with just one of these? active, inactive

The examples below pair each entry with its known result.
> print(dat)
                                   compound     group
1  C[C@@H]1CC[C@@H]2[C@@H]1[C@H](OC(=O)/C=C/c1ccccc1)[C@]1(C3CCCCC3)C[C@@H](NC(=O)CO)[C@@]2(C)O1  inactive
2  CCOC(=O)c1c2c(n(Cc3ccccc3)c1C)-c1ccccc1C(=O)C2=O  inactive
3          Cc1cnc(/C=N\NC(N)=S)c2cccc(N)c12  inactive
4  CN(N=O)C(=O)N[C@@H](C=O)[C@@H](O)[C@H](O)[C@H](O)CO  inactive
5  CC(C)(C#N)c1cc(F)cc(C(=O)Nc2cc(Nc3ncccc3-c3ncnc4nc[nH]c34)ccc2F)c1    active
6  CN1CCN(Cc2ccc(NC(=O)c3cncc(C#Cc4cncc5ncccc45)c3)cc2C(F)(F)F)CC1  inactive

In: # lookup: test call for `C=CC[P+](c1ccccc1)(c1ccccc1)c1ccccc1`
Out: inactive

In: # fetch the recorded call for `CCOC(=O)/C=C/c1cc2cc(-c3csc4ccccc34)ccc2[nH]1` here
Out: inactive

In: Tell me the assay call for Cc1noc(C)c1-c1cc(O)cc(C(O)c2ccccc2)c1 (stereo not given) please.
Out: inactive

In: For CCOC(=O)C1=C(C)NC2SC(=O)/C(=C\c3ccccc3O)N2C1c1ccccc1 (stereo not given) , what call appears in the results of this test?
Out: inactive

====

Measured TGI values are reported for all entries that follow.
Test system: U251 CNS
PROCEDURE SUMMARY: NCI tumour cell line growth inhibition, 48 h

In: Entry `Fc1ccc(OCc2nc3cc(C(F)(F)F)ccc3nc2-c2ccccc2)cc1` has what TGI?
Out: > 100 µM

In: Can you share its TGI? I mean this compound: c1ccc(-c2cc(C3CO3)c3ccccc3n2)cc1 (stereo unspecified)
Out: 30 µM

====

System: HCT-15 colon
PROCEDURE SUMMARY: NCI tumour cell line growth inhibition, 48 h; in the data active = GI50 below about 0.43 µM; inactive = the rest
Hello, when you answer, please use one of the following outcomes: active, inactive

> print(dat)
                        smiles.code   test.system     group
1  Cc1cnc(/C=N\NC(N)=S)c2cccc(N)c12  HCT-15 colon  inactive

In: Hello, I am checking results. What call was entered for `Cc1cccc(C(=O)/C=C/SC(=NC#N)SCc2ccccc2)c1` ?
Out: inactive

In: Given `CC/C=C\C/C=C\C[C@H](O)C/C=C1/C(=O)C=C[C@@H]1C/C=C\CCCC(=O)O` , state the outcome it received in this test.
Out: inactive

In: Could you check what this test reported for `CC(C)(C)c1[nH]cnc1/C=c1\[nH]c(=O)/c(=C/c2ccccc2)[nH]c1=O` ?
Out: active

In: For `C[C@@H]1CC[C@@H]2[C@@H]1[C@H](OC(=O)/C=C/c1ccccc1)[C@]1(C3CCCCC3)C[C@@H](NC(=O)CO)[C@@]2(C)O1` , what call appears in the results of this test?
Out: inactive

====

Recorded GI50 for the following compounds
System: CCRF-CEM leukemia
PROCEDURE SUMMARY: NCI tumour cell line growth inhibition, 48 h

Examples from the recorded data:
> print(dat)
                                   compound  experimental.value
1  COc1cccc2c1-c1c(c3ccc([N+](=O)[O-])cc3c(=O)n1CCCCl)C2=O              1.5 µM
2  CCOC(=O)C1=C(C)NC2SC(=O)/C(=C\c3ccccc3O)N2C1c1ccccc1 (stereo unspecified)             10.2 µM
3  CC(C)(C)c1[nH]cnc1/C=c1\[nH]c(=O)/c(=C/c2ccccc2)[nH]c1=O           < 0.01 µM

In: Recorded GI50 of `O=C(c1ccco1)c1nc2cc(F)ccc2[n+]([O-])c1C(F)(F)F` , please.
Out: 29.9 µM

In: Tell me the measured GI50 of `C=CC[P+](c1ccccc1)(c1ccccc1)c1ccccc1` , please.
Out: 3.4 µM

In: Returns the measured GI50 for the input compound. Input: `O=C(CN1CCN(c2ccc(Cl)cc2)CC1)N1CCN(c2nnc(-c3ccc(Cl)cc3)c(-c3ccc(Cl)cc3)n2)CC1`
Out: 16.5 µM
